molecular target: Human BCL-XL protein (N-terminal HiBiT tagged BCL-XL expressed in HT1080 cells) (Homo sapiens); construct: expressed in transfected cells; host or cells: HT-1080 (ATCC CCL-121), stably transduced with lentivirus pLV-UBC-N-HiBiT-BCL-XL-PGK-puro and selected with puromycin; assay: HiBiT Based Degradation Assay; format: cell-based; details: BCL-XL degradation, HT1080 cells expressing N-HiBiT-BCL-XL, 24 hours incubation, normalized with DMSO control; geometric mean for multiple data points; read-out: EC50 (24 h)
Sequence (Q07817 whole entry): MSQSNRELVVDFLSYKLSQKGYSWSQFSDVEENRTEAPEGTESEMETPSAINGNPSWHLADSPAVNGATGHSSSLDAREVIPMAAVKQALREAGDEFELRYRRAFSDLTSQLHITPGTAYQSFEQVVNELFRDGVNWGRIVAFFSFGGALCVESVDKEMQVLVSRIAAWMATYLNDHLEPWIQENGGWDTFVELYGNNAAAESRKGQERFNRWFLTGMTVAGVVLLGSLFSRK
# maps each entry to its DC50
result-type: DC50

>  <compound>
Cc1c(OCCN2CCCC23CCN(CC(=O)Nc2ccc4c(C5CCC(=O)NC5=O)nn(C)c4c2)CC3)cccc1-c1ccc(N2CCc3cccc(C(=O)Nc4nc5ccccc5s4)c3C2)nc1C(=O)O (stereo not drawn)

>  <value-observed>
< 10 nM

$$$$
>  <compound>
Cn1nc(C2CCC(=O)NC2=O)c2ccc(NC(=O)CN3CCC4(CC3)CC(COc3cccc(-c5ccc(N6CCc7ccnc(C(=O)Nc8nc9ccccc9s8)c7C6)nc5C(=O)O)c3C(F)(F)F)C4)cc21 (stereo not drawn)

>  <value-observed>
10 to 100 nM

$$$$
>  <compound>
Cc1cc(OC2CC3(CCN(CC(=O)Nc4ccc5c(C6CCC(=O)NC6=O)nn(C)c5c4F)CC3)C2)ccc1-c1ccc(N2CCc3cccc(C(=O)Nc4nc5ccccc5s4)c3C2)nc1C(=O)O (stereo not drawn)

>  <value-observed>
< 10 nM

$$$$
